tested-on: Tryptase (Rattus norvegicus, UniProt P49864)
Construct: The BLT-esteraseactivity was found in fractions 49 and 56; endogenous in cells; host or cells: rat RNK-16 NK/LGL leukemia cells, cytolytic granules, HPLC fraction 56
Sequence (P49864 26-258): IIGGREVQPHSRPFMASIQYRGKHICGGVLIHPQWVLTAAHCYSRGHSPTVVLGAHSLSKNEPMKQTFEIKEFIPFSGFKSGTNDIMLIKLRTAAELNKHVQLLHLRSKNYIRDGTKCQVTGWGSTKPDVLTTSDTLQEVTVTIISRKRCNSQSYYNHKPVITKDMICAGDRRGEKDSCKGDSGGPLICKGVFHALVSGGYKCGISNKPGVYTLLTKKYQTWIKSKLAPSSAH
test-protocol: Initial rates of peptide thiobenzyl ester substrate hydrolysis by HPLC-purified Tryptase (HPLC fraction 56)
Format: biochemical
experimental-conditions: 10 μl enzyme solution (HPLC fraction 56); [S] 100-133 μM; pH 7.5, 25° C.
Starred links: 1 amine or outer side, 2 acyl side, 3 side chain; linkers in the order of their positions; H or OH if unused. Residues, ends and D or L forms follow the SMILES beside them. *: point of attachment. Suc = O=C(CCC(=O)[*:2])[*:1]; Boc = CC(C)(C)OC(=O)*; SBn = c1ccc(CS*)cc1
List of Initial Rates, Tryptase values.
Could you give me the number in nM/s? Just the number is fine.

In the examples that follow, each entry is paired with its recorded Initial Rates, Tryptase.
1. C[C@H](NC(=O)OC(C)(C)C)C(=O)N[C@@H](C)C(=O)N[C@@H](CC(=O)O)C(=O)SCc1ccccc1 [Boc--Ala--Ala--Asp--SBz1, Boc-Ala-Ala-Asp-SBzl] (Boc-Ala-Ala-Asp-SBn)    0
2. CSCC[C@H](NC(=O)[C@H](C)NC(=O)[C@H](C)NC(=O)OC(C)(C)C)C(=O)SCc1ccccc1 [Boc--Ala--Ala--Met--SBz1, Boc-Ala-Ala-Met-S Benzyl (Bzl)] (Boc-Ala-Ala-Met-SBn)    0
3. N=C(N)NCCC[C@H](NC(=O)OCc1ccccc1)C(=O)SCc1ccccc1    22.7
4. CC(C)C[C@H](NC(=O)[C@H](Cc1ccccc1)NC(=O)CCC(=O)O)C(=O)N[C@@H](Cc1ccccc1)C(=O)SCc1ccccc1 [Suc--Phe--Leu--Phe--SBz1, Suc-Phe-Leu-Phe-SBzl] (Suc-Phe-Leu-Phe-SBn)    0

In the following, a different compound is considered.
// query Entry under review: C[C@H](NC(=O)OC(C)(C)C)C(=O)N[C@@H](C)C(=O)N[C@@H](CO)C(=O)SCc1ccccc1 [Boc--Ala--Ala--Ser--SBz1] (Boc-Ala-Ala-Ser-SBn) . Reported Initial Rates, Tryptase?
// result 0.4
